- targetUnderTest: UniProt Q8NER1
- Sequence (Q8NER1 whole entry): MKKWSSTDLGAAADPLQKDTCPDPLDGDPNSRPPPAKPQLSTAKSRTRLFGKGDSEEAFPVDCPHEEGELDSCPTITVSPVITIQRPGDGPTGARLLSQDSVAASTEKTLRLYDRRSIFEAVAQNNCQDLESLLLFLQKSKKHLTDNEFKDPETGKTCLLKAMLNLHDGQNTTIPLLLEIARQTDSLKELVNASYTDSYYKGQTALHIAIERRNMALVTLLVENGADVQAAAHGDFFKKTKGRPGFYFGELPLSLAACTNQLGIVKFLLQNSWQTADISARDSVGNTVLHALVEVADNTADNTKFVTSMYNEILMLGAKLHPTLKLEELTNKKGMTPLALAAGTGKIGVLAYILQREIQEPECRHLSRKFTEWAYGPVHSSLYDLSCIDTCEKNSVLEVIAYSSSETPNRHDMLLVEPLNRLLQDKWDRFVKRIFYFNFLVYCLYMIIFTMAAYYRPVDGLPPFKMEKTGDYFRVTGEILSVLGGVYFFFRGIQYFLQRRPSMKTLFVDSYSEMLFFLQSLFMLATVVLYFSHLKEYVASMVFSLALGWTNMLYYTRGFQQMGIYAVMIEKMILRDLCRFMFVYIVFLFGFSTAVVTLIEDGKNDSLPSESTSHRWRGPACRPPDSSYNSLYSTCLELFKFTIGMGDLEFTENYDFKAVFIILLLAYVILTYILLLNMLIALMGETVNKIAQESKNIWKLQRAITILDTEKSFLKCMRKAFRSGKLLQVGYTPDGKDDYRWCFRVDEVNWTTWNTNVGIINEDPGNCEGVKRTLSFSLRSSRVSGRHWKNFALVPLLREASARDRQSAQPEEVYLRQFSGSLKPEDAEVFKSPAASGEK
- experiment: Displacement of [3H]RTX from human TRPV1 expressed in HEK293 cell membranes after 60 mins by scintillation counting method
reportedMetric: IC50 (nM)

- smilesRecord: "Cl.O=C1CCc2ccc(NC(=O)c3ccc(-c4ccccc4)c(CN4CCCCC4)c3)cc2N1"
  uom: "nM"
  IC50: 95

(1) CN1C(=O)CCc2ccc(NC(=O)c3ccc(-c4ccccc4)c(CN4CCOCC4)c3)cc21.Cl
(2) CCN1C(=O)CCc2ccc(NC(=O)c3ccc(-c4ccccc4)c(CN4CCCCC4)c3)cc21.Cl
Request: Form: Entry with minimum IC50 (choose one): 1 / 2 Your answer should be the label of the entry you select.
Result: 2
(2: 86 nM, 1: 150 nM)
